Recorded IC50 by entry
- system under test: TYK2 (Homo sapiens, UniProt P29597)
- Sequence (P29597 whole entry): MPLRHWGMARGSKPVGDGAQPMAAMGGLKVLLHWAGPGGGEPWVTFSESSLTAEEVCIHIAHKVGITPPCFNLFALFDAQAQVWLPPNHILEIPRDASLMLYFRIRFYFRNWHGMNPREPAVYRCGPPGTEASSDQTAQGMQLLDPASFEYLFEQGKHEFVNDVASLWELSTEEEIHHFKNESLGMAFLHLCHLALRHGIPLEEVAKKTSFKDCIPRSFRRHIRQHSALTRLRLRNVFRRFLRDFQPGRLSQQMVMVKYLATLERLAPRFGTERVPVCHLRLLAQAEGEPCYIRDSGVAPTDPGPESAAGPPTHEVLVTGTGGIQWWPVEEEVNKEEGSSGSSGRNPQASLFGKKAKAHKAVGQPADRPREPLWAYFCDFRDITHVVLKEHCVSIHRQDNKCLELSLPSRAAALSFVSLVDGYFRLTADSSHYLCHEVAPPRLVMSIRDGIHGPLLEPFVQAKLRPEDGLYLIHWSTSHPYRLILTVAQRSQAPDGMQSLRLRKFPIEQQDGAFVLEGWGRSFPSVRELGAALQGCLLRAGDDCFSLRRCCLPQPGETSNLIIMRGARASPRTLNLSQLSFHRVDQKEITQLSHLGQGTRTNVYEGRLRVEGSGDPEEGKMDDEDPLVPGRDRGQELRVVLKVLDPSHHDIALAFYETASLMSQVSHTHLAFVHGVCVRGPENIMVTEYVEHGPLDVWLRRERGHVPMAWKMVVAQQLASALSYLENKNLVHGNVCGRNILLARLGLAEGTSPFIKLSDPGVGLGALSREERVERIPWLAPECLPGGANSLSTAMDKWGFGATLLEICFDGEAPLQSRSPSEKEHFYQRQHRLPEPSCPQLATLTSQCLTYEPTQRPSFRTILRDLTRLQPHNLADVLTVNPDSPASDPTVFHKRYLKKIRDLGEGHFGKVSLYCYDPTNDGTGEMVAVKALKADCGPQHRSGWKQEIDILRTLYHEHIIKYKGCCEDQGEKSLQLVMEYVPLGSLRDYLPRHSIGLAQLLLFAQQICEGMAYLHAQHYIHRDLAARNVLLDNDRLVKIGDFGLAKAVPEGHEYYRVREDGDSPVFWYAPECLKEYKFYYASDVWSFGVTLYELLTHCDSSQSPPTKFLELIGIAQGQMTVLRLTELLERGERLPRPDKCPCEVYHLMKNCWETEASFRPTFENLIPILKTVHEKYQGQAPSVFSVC
- experiment description: TYK2 kinase inhibition (Table A1)
- Assay type: biochemical
Where a name gives a salt, the structure may show the parent alone.

Consider the reported IC50 for these molecules:
>>> df
                                   molecule                    system_under_test  experimental_readout  meas_value
0  COC(=O)c1ccc2cc1CCc1cncc(c1)Nc1ncc(Cl)c(n1)N2 [Example C28]  TYK2 (Homo sapiens, UniProt P29597)                  IC50    > 200 nM
1  O=C1Cc2cccc(c2)Nc2nc(ncc2Cl)Nc2cccc(c2)N1 [Example C11, trifluoroacetate]  TYK2 (Homo sapiens, UniProt P29597)                  IC50   > 1000 nM
2  N#Cc1cccnc1N1CCC(CC(=O)Nc2ccc3cc2CCc2cncc(c2)Nc2ncc(Cl)c(n2)N3)CC1 [Example A177, tris(trifluoroacetate)]  TYK2 (Homo sapiens, UniProt P29597)                  IC50    > 200 nM

Below: the item to evaluate.
Please look up its IC50: Cc1ccnc(N2CCC(CC(=O)Nc3ccc4cc3CCc3cncc(c3)Nc3ncc(Cl)c(n3)N4)CC2)c1 [Example A176, tris(trifluoroacetate)]
> 200 nM

###

- system under test: human JAK3 (a.a. 781-1124) (Homo sapiens, UniProt P52333)
- Construct: JAK3 (a.a. 781-1124); His tag (N); made in house; host or cells: insect cells (baculovirus)
- Sequence (P52333 781-1124): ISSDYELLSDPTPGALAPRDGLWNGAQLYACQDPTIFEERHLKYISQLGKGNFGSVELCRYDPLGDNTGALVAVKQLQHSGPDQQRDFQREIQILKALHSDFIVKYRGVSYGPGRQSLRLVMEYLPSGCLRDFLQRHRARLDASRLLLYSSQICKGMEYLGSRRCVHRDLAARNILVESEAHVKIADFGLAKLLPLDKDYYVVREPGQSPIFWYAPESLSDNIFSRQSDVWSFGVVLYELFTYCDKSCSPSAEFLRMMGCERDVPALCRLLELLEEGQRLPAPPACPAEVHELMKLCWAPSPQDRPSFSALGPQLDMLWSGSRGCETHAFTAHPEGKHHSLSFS
- experiment description: In vitro JAK kinase assay (HTRF, phosphorylation of a biotinylated peptide), JAK3
- Format: biochemical
- measurement setup: Table D1
pIC50: −log10 of the molar value. Counter-ions that a name gives are not always drawn.
# pIC50 per entry

Take a look at these entries with their results.
In [3]: df
Out[3]:
                                   molecule  experimental_readout  meas_value
0  Clc1cnc2nc1Nc1cccc(c1)SSc1cccc(c1)N2 [Example D12, trifluoroacetate]                 pIC50        6.43
1  O=C(c1ccncc1)N1CCC(CCOc2ccc3cc2CCc2cncc(c2)Nc2ncc(Cl)c(n2)N3)CC1 [Example D181, tris(trifluoroacetate)]                 pIC50      < 6.40
2  Cc1ccc(N2CCN(C(=O)COc3ccc4cc3CCc3cncc(c3)Nc3ncc(Cl)c(n3)N4)CC2)nc1 [Example D246, tris(trifluoroacetate)]                 pIC50      < 6.40
3  O=C(CC1CCN(c2nncs2)C1)Nc1ccc2cc1CCc1cncc(c1)Nc1ncc(Cl)c(n1)N2 (stereo not drawn) [Example D155, tris(trifluoroacetate)]                 pIC50      < 6.40
4  Clc1cnc2nc1Nc1cccc(c1)CSCCc1cccc(c1)N2 [Example D32, trifluoroacetate]                 pIC50        7.08

Recall the recorded pIC50 for O=C(COc1ccc2cc1CCc1cncc(c1)Nc1ncc(Cl)c(n1)N2)N1CCC(c2nc(-c3cccs3)no2)CC1 [Example D258, bis(trifluoroacetate)] with human JAK3 (a.a. 781-1124) (Homo sapiens, UniProt P52333) and state it.
< 6.40

Field: pIC50 (human JAK3 (a.a. 781-1124) (Homo sapiens, UniProt P52333)). Entry: Clc1cnc2nc1Nc1cccc(c1)CNc1cccc(c1)N2 [Example D17, bis(trifluoroacetate)]
6.78

Find the measured pIC50: item O=C(COc1ccc2cc1CCc1cncc(c1)Nc1ncc(Cl)c(n1)N2)N1CCN(c2cccc(Cl)n2)CC1 [Example D240, tris(trifluoroacetate)] , target or system human JAK3 (a.a. 781-1124) (Homo sapiens, UniProt P52333).
< 6.40

Kindly state the measured pIC50 obtained for O=C(COc1ccc2cc1CCc1cncc(c1)Nc1ncc(Cl)c(n1)N2)N1CCN(c2cnccn2)CC1 [Example D232, tris(trifluoroacetate)] with human JAK3 (a.a. 781-1124) (Homo sapiens, UniProt P52333).
< 6.40
